Each record here notes measured residual binding, % of no competitor.
Target or system: T1, cMetECDHis (human, UniProt P08581 25-932, limits assumed, biotinylated in the cross-block ELISA of Example 17)
T1 construct: Expressed in HEK-293F cells; also called soluble cMetECDHis; biotinylated cMetECDHis
Assay comment: cross-block ELISA; competitor 098
Enter your answer as a number in %; do not include the unit.

INSERT INTO assay_data (binder, observed_result) VALUES
  ('anti-c-Met HuMab 035 (IgG1) (antibody, V domains shown, also called P1016-035; TH1016-035-D09) VH: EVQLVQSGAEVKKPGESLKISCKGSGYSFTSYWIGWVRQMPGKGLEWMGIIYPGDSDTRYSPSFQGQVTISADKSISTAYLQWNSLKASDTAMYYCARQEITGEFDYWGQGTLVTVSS VL: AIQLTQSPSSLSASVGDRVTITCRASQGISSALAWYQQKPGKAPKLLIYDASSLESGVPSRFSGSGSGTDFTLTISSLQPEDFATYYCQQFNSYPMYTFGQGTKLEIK', 126),
  ('anti-c-Met HuMab 005 (IgG1) (antibody, V domains shown, also called TH1016-005; PC1016-005) VH: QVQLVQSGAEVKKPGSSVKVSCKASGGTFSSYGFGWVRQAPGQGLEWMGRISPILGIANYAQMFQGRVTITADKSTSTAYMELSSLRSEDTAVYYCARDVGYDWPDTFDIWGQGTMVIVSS VL: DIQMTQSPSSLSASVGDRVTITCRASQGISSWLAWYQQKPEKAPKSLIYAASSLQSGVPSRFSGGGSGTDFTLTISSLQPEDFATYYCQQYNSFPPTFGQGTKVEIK', 110),
  ('IgG1-1016-022 (antibody, V domains shown, also called TH1016-022; PC1016-022) VH: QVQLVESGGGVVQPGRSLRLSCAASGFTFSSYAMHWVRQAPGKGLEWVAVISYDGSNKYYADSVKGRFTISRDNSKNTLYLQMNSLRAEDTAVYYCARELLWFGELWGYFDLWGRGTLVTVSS VL: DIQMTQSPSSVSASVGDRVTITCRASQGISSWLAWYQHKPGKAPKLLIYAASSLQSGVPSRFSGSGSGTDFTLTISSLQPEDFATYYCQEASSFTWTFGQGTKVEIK', 105);

Moving on to another binder below.
Entry anti-c-Met HuMab 008 (IgG1) (antibody, V domains shown, also called TH1016-008; PC1016-008) VH: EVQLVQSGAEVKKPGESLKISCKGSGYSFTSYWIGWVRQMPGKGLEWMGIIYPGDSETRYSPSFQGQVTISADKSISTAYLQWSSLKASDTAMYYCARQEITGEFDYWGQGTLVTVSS VL: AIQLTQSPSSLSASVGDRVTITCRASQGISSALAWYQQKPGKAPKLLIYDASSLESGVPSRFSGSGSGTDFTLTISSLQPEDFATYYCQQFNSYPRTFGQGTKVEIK , residual binding, % of no competitor reported as 107
